Below is a list of entries, each paired with its recorded FLIPR IC50 (GRO-α induced calcium release) value.
- TARGET: T1, Human CXCR2 (human, UniProt P25025 1-360)
- T1 sequence: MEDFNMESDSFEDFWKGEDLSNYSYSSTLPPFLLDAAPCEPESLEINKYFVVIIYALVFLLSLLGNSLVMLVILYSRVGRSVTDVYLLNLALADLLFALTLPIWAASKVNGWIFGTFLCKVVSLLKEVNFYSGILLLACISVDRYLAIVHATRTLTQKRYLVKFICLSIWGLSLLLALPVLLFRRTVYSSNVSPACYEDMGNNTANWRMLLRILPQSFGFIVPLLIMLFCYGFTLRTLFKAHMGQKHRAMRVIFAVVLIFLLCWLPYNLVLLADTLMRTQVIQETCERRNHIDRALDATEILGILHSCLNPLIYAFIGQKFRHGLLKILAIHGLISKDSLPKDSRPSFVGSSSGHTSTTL
- TEST_DESCRIPTION: cell-based or functional assay
ASSAY_ENDPOINT: FLIPR IC50 (GRO-α induced calcium release) (nM)

[
  {
    "BINDER": "CXCR20017 (other, Two different VHH joined by a GlySer linker; also called 97A9-35GS-137B7; not shown: C-terminal c-myc tag and His6 tag coded by pAX100) EVQLVESGGGLVQPGGSLRLSCVASGSIVRINTMGWYRQTPGKQRELVADITSGGNINYIDAVKGRFTISRDNTKNTVYLQMNSLKPEDTAVYYCNAEIVVLVGVWTQRARTGNYWGQGTQVTVSSGGGGSGGGGSGGGGSGGGGSGGGGSGGGGSGGGGSEVQLVESGGGLVQPGGSVRLSCVASGIIFRLSALGWTRQGPGKAREWVAGINSDGTTNYADPVKGRFTISRDNAKNTIYLHMDMLKPEDTAVYYCASGKYRGQGTQVTVSS",
    "RESULT_NUMBER": 22.9
  },
  {
    "BINDER": "CXCR20027 (bispecific antibody, Two different VHH joined by a GlySer linker; also called 163E3-35GS-163D2; not shown: C-terminal c-myc tag and His6 tag coded by pAX100) EVQLVESGGGLVQPGGSLRLSCVASGRIFSSNAMGWFRQAPGKEREFVAAITWRSGGSAYYADSAKGRFTISRDNAKNTVYLQMNSLKPEDTAVYYCAAGGSSWLSFPPDYWGQGTQVTVSSGGGGSGGGGSGGGGSGGGGSGGGGSGGGGSGGGGSEVQLVESGGGLVQAGGSLRLSCAASGRTFSDYAMGWFRQAPGKEREFVAAITWNGGRVFYTASVKGRFTISRDNAKNTMYLQMNSLKPEDTAVYYCAADKDRRTDYLGHPVAYWGQGTQVTVSS",
    "RESULT_NUMBER": 17.8
  },
  {
    "BINDER": "CXCR20032 (bispecific antibody, Biparatopic: two VHH joined by a GlySer linker; also called 2B2-35GS-163D2; not shown: C-terminal c-myc tag and His6 tag coded by pAX100) EVQLVESGGELVQPGGSLRLSCAASGSILTINAMGWYRQAPGKQRELVVRRTRGGSTTYQDSVKGRFTISADIAKKTMYLQMNSLKPEDTAVYYCMLDDRGGVYWGQGTQVTVSSGGGGSGGGGSGGGGSGGGGSGGGGSGGGGSGGGGSEVQLVESGGGLVQAGGSLRLSCAASGRTFSDYAMGWFRQAPGKEREFVAAITWNGGRVFYTASVKGRFTISRDNAKNTMYLQMNSLKPEDTAVYYCAADKDRRTDYLGHPVAYWGQGTQVTVSS",
    "RESULT_NUMBER": 14.7
  },
  {
    "BINDER": "CXCR20028 (other, Biparatopic: two VHH joined by a GlySer linker; also called 97A9-35GS-54B12; 97A9-54B12; not shown: C-terminal c-myc tag and His6 tag coded by pAX100) EVQLVESGGGLVQPGGSLRLSCVASGSIVRINTMGWYRQTPGKQRELVADITSGGNINYIDAVKGRFTISRDNTKNTVYLQMNSLKPEDTAVYYCNAEIVVLVGVWTQRARTGNYWGQGTQVTVSSGGGGSGGGGSGGGGSGGGGSGGGGSGGGGSGGGGSEVQLVESGGGLVQAGGSLTLSCAVSGSTFRINTMGWYRRAPGKQRELVAARDRGGYINYVDSVKGRFTVSRDNAKPTMYLQMNSLKPEDTAVYYCHAGTQDRTGRNFDRWGQGTQVTVSS",
    "RESULT_NUMBER": 21.9
  },
  {
    "BINDER": "CXCR20021 (bispecific antibody, Biparatopic: two VHH joined by a GlySer linker; also called 127D1-35GS-163E3; 127D1-163E3; not shown: C-terminal c-myc tag and His6 tag coded by pAX100) EVQLVESGGGLVQAGESLRLSCAASGSTFDFKVMGWYRQPPGKQREGVAAIRLSGNMHYAESVKGRFTISKANAKNTVYLQMNSLRPEDTAVYYCKVNIRGQDYWGQGTQVTVSSGGGGSGGGGSGGGGSGGGGSGGGGSGGGGSGGGGSEVQLVESGGGLVQPGGSLRLSCVASGRIFSSNAMGWFRQAPGKEREFVAAITWRSGGSAYYADSAKGRFTISRDNAKNTVYLQMNSLKPEDTAVYYCAAGGSSWLSFPPDYWGQGTQVTVSS",
    "RESULT_NUMBER": 7.32
  }
]
